Values from patent US20250275959A1

Readings of pIC50 for the listed compounds
Molecular target: hACSL5 (Homo sapiens (Human), UniProt Q9ULC5)
Sequence (Q9ULC5 whole entry): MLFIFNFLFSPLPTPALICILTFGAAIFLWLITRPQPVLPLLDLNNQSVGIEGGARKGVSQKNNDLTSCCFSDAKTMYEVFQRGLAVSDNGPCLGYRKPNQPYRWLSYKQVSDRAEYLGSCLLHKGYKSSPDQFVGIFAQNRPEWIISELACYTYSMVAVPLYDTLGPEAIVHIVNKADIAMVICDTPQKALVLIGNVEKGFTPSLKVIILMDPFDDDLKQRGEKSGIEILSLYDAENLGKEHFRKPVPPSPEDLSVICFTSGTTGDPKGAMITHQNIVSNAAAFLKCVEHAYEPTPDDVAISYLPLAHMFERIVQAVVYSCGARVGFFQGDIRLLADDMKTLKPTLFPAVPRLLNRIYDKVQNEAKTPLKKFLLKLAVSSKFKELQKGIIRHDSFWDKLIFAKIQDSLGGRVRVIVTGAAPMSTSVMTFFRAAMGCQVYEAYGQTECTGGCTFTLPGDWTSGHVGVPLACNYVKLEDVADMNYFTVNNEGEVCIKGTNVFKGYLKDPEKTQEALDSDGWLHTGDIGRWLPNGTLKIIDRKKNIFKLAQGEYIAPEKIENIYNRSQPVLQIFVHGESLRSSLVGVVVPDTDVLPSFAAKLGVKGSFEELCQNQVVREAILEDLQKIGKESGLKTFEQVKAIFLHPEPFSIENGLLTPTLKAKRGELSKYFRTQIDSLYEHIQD
Assay: Cell-based assay (CBA) with B12FA in hACSL5-transfected Expi293F / FlpIn TRex293 cells
Conditions: hACSL5-expressing cells
pIC50: −log10 of the molar value.
measurement-kind: pIC50

1. CC[C@@H](Oc1ccc(C(=O)NS(=O)(=O)c2ccc(OCCN(C)C)cc2)c(F)c1F)c1cc(Oc2ccccn2)ccn1: 6.30 to 7.00
2. CC[C@@H](Oc1ccc(C(=O)NS(=O)(=O)c2ccc(OC3CCN(C)CC3)cc2)c(F)c1F)c1ccc(OCC2CC2)cn1: > 7.00
3. CC[C@@H](Oc1ccc(C(=O)NS(=O)(=O)C(C)(C)CN(C)C)c(F)c1F)c1ccc(OCC2CC2)cn1: 6.30 to 7.00
